All values here come from ChEMBL document CHEMBL1129436.

Target: Calpain-1 catalytic subunit (Homo sapiens, UniProt P07384)
Sequence (P07384 whole entry): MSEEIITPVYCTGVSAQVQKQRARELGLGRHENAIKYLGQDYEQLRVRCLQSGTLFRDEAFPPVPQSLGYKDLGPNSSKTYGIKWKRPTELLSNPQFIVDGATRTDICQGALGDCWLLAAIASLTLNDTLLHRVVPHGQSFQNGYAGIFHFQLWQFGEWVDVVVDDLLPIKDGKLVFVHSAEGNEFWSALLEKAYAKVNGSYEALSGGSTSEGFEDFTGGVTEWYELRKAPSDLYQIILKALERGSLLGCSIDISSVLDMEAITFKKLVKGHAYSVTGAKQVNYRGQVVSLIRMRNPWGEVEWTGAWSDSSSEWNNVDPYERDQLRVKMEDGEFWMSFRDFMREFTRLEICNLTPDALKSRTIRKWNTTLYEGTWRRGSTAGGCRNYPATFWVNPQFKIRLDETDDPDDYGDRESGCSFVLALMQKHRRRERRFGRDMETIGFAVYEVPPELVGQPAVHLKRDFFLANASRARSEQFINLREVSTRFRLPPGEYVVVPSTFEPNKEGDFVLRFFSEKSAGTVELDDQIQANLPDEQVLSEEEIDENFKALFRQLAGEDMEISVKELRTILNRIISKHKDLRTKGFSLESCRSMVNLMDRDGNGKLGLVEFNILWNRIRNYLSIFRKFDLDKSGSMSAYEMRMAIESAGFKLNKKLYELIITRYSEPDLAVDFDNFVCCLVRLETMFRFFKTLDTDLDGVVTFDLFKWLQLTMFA
Assay: Inhibition of the cysteine protease human Calpain 1
Response field class: enum, chosen by comparing Ki against lower level (below 300 nM), middle level (300 nM to below 600 nM), upper level (600 nM or more)

Returns: class label. Input: CCNC(=O)C(=O)C(CC)NC(=O)C(CC(C)C)NC(=O)c1cnccn1 (centres undefined) upper level

Any idea which band CCC(NC(=O)C(CC(C)C)NC(=O)OCc1ccccc1)C(=O)C(=O)NCC(O)c1cccc(Oc2ccc(Cl)c(Cl)c2)c1 (centres undefined) is in? lower level

For this compound, which bin applies? CC(C)CC(NC(=O)OCc1ccccc1)C(=O)NC(Cc1ccccc1)C(=O)C(=O)NCCCN1CCc2ccccc2C1 (centres undefined) lower level

State the class of the compound shown: CCC(NC(=O)C(CC(C)C)NC(=O)OCc1ccccc1)C(=O)C(=O)NCc1ccccn1 (centres undefined) upper level

Which of the defined bands does the recorded Ki of CCC(NC(=O)C(CC(C)C)NC(=O)OCc1ccccc1)C(=O)C(=O)NCCc1ccc(OC)cc1 (centres undefined) sit within? lower level

Dear colleague, I would appreciate it if you could identify the bin for CCC(NC(=O)C(CC(C)C)NC(=O)OCc1ccccc1)C(=O)C(=O)NCC1(C)CC(O)CC(C)(C)C1 (centres undefined) and reply at your convenience. middle level

GET /class?item= CCC(NC(=O)C(CC(C)C)NC(=O)OCc1ccccc1)C(=O)C(=O)NCCN1CCOCC1 (centres undefined) upper level

Given CCC(NC(=O)C(CC(C)C)NC(=O)OCc1ccccc1)C(=O)C(=O)NCC(O)c1cccc2ccccc12 (centres undefined) , name the class its Ki places it in. lower level

Class for CCC(NC(=O)C(CC(C)C)NC(=O)OCc1ccccc1)C(=O)C(=O)NCc1ccc2ccccc2n1 (centres undefined) ? lower level

Bin this entry: CCCC(NC(=O)C(CC(C)C)NC(=O)OCc1ccccc1)C(=O)C(=O)NCc1ccccn1 (centres undefined) lower level

Category of CCC(NC(=O)C(CC(C)C)NC(=O)OCc1ccccc1)C(=O)C(=O)NCC(O)c1cc(OC)c(OC)c(OC)c1 (centres undefined) : middle level

Category lookup for the compound CC(C)CC(NC(=O)C(c1ccccc1)c1ccccc1)C(=O)NC(Cc1ccccc1)C(=O)C(=O)NCCCN1CCOCC1 (centres undefined) upper level

State the band of CC(C)CC(NC(=O)OCc1ccccc1)C(=O)NC(Cc1ccccc1)C(=O)C(=O)NCC(O)c1cccc(C(F)(F)F)c1 (centres undefined) middle level

Dear colleague, I would appreciate it if you could identify the bin for CCNC(=O)C(=O)C(CC)NC(=O)C(CC(C)C)NC(=O)CCc1ccccc1 (centres undefined) and reply at your convenience. upper level

Could you tell me which band CCC(NC(=O)C(CC(C)C)NC(=O)OCc1ccccc1)C(=O)C(=O)NCCc1ccc(O)cc1 (centres undefined) belongs to? middle level

Exam item: assign CCC(NC(=O)C(CC(C)C)NC(=O)OCc1ccccc1)C(=O)C(=O)NCc1nc2c(c(=O)n(C)c(=O)n2C)n1C (centres undefined) to the correct category. upper level

For this compound, which bin applies? CC(C)CC(NC(=O)OCc1ccccc1)C(=O)NC(Cc1ccccc1)C(=O)C(=O)NCc1ccccn1 (centres undefined) upper level

Returns: class label. Input: CC(C)CC(NC(=O)OCc1ccccc1)C(=O)NC(Cc1ccccc1)C(=O)C(=O)NCC(O)c1ccc(N(C)C)cc1 (centres undefined) upper level

Band for the recorded Ki of CCC(NC(=O)C(CC(C)C)NC(=O)OCc1ccccc1)C(=O)C(=O)NCC(O)c1ccc(OCc2ccccc2)c(OCc2ccccc2)c1 (centres undefined) ? lower level

Exam item: assign CCC(NC(=O)C(CC(C)C)NC(=O)OCc1ccccc1)C(=O)C(=O)NCCNC(=O)CCCC[C@@H]1SC[C@@H]2NC(=O)N[C@@H]21 (some centres undefined) to the correct category. upper level

Band for the recorded Ki of CCNC(=O)C(=O)C(CC)NC(=O)C(CC(C)C)NC(=O)c1ccco1 (centres undefined) ? upper level

Returns: class label. Input: CCNC(=O)C(=O)C(CC)NC(=O)C(CC(C)C)NC(=O)c1nccc2ccccc12 (centres undefined) middle level

# bin lookup: classify CCC(NC(=O)C(CC(C)C)NC(=O)OCc1ccccc1)C(=O)C(=O)NCCCn1ccnc1 (centres undefined) by its Ki lower level

Assign a category based on measured Ki for CCC(NC(=O)C(CC(C)C)NC(=O)OCc1ccccc1)C(=O)C(=O)NCC(O)c1ccc2ccccc2c1 (centres undefined) and give only the class name. middle level

Which of the defined bands does the recorded Ki of CCC(NC(=O)C(CC(C)C)NC(=O)OCc1ccccc1)C(=O)C(=O)NCC(O)c1ccccc1 (centres undefined) sit within? upper level

Please let me know in which category the item CC(C)CC(NC(=O)OCc1ccccc1)C(=O)NC(Cc1ccccc1)C(=O)C(=O)NCCCN1CCCc2ccccc21 (centres undefined) belongs. middle level

Which of the defined bands does the recorded Ki of CCNC(=O)C(=O)C(CC)NC(=O)C(CC(C)C)NC(=O)N1CCOCC1 (centres undefined) sit within? upper level

Category of CCCC(NC(=O)C(CC(C)C)NC(=O)OCc1ccccc1)C(=O)C(=O)NCC(O)c1ccccc1 (centres undefined) , please. upper level

Record CCC(NC(=O)C(CC(C)C)NC(=O)OCc1ccccc1)C(=O)C(=O)NCc1ccncc1 (centres undefined) — which class? upper level

Hello team, could you let me know which band the following compound falls into: CCC(NC(=O)C(CC(C)C)NC(=O)OCc1ccccc1)C(=O)C(=O)NCC(O)c1cccc(Oc2ccccc2)c1 (centres undefined) upper level

Into which category would you place CC(C)CC(NC(=O)OCc1ccccc1)C(=O)NC(Cc1ccccc1)C(=O)C(=O)NCC(O)c1cccc(Oc2cccc(C(F)(F)F)c2)c1 (centres undefined) ? lower level

Where would CCCC(NC(=O)C(CC(C)C)NC(=O)OCc1ccccc1)C(=O)C(=O)NCCCN1CCOCC1 (centres undefined) land among the classes by reported Ki? lower level

Class (by measured Ki) for CCC(NC(=O)C(CC(C)C)NC(=O)OCc1ccccc1)C(=O)C(=O)NCc1nccc2ccccc12 (centres undefined) lower level

Which category fits this record: CCC(NC(=O)C(CC(C)C)NC(=O)OCc1ccccc1)C(=O)C(=O)NCC(O)c1ccc(Oc2ccccc2)cc1 (centres undefined) lower level
